The origin of these recorded values is patent US7541353B2.

test system: HCV replicon cells; test: HCV replicon FRET assay; type: cell-based; details: Hepatitis C virus
pEC50: −log10 of the molar value.
Reported pEC50 values are given for each entry in this list.

- Compound: "COc1ccc2c(c1)C1CC1(C(=O)N1C3CCC1CC(N(CCN(C)C)Cc1ccccc1)C3)Cn1c-2c(C2CCCCC2)c2ccc(C(=O)NS(=O)(=O)N(C)C)cc21 (stereo not drawn)"
  Assayed Target: "HCV replicon cells"
  pEC50: "6.30 to 8.34"
- Compound: "COc1ccc2c(c1)C1CC1(C(=O)N1C3CCC1COC3)Cn1c-2c(C2CCCCC2)c2ccc(C(=O)NS(=O)(=O)N(C)C)cc21 (stereo not drawn)"
  Assayed Target: "HCV replicon cells"
  pEC50: "6.30 to 8.34"
- Compound: "COc1ccc2c(c1)C1CC1(C(=O)N1C3CCC1CC(N(C)C)C3)Cn1c-2c(C2CCCCC2)c2ccc(C(=O)NS(=O)(=O)N(C)C)cc21 (stereo not drawn)"
  Assayed Target: "HCV replicon cells"
  pEC50: "6.30 to 8.34"

====

Below: a set of entries, each annotated with reported pIC50.
target: HCV NS5B (Hepatitis C virus genotype 1b, UniProt Q9WMX2); construct: The cDNA encoding the NS5B protein of HCV, genotype 1b; made in house; host or cells: E. coli BL21(DE3); test: Modified HCV NS5B RdRp enzyme assay (preincubation protocol); assay type: biochemical
Sequence (Q9WMX2 2420-2992): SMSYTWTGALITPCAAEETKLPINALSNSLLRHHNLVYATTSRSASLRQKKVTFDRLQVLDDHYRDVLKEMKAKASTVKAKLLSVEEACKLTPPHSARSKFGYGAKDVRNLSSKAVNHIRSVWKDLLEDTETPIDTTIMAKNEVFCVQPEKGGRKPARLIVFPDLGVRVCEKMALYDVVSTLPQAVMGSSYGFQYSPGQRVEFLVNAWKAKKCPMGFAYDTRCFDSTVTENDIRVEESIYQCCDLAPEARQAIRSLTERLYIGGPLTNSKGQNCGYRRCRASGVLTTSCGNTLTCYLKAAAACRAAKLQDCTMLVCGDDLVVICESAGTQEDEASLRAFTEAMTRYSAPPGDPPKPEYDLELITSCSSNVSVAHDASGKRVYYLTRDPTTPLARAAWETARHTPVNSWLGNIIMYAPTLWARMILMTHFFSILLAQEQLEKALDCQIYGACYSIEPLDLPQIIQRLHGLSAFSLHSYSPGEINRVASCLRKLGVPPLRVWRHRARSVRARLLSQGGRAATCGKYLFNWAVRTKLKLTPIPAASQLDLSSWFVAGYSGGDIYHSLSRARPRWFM
pIC50: −log10 of the molar value.
Assay Readout: pIC50

- Compound: "COc1ccc2c(c1)C1CC1(C(=O)N1C3CCC1CC(=O)C3)Cn1c-2c(C2CCCCC2)c2ccc(C(=O)NS(=O)(=O)N(C)C)cc21 (centres unmarked)"
  Reported: "6.30 to 8.34"
- Compound: "COc1ccc2c(c1)C1CC1(C(=O)N1C3CCCC1COC3)Cn1c-2c(C2CCCCC2)c2ccc(C(=O)NS(=O)(=O)C3CCC3)cc21 (centres unmarked)"
  Reported: "6.30 to 8.34"
- Compound: "COc1ccc2c(c1)C1CC1(C(=O)N1C3CCC1CC(C)(O)C3)Cn1c-2c(C2CCCCC2)c2ccc(C(=O)NS(=O)(=O)N(C)C)cc21 (centres unmarked)"
  Reported: "6.30 to 8.34"
- Compound: "COc1ccc2c(c1)C1CC1(C(=O)N1C3CCC1CC(=O)C3)Cn1c-2c(C2CCCCC2)c2ccc(C(=O)NS(C)(=O)=O)cc21 (centres unmarked)"
  Reported: "6.30 to 8.34"
- Compound: "COc1ccc2c(c1)C1CC1(C(=O)N1C3COCC1COC3)Cn1c-2c(C2CCCCC2)c2ccc(C(=O)NS(=O)(=O)C3CCCCC3)cc21 (centres unmarked)"
  Reported: "6.30 to 8.34"
- Compound: "COc1ccc2c(c1)C1CC1(C(=O)N1C3CCC1CC(NCCN(C)C)C3)Cn1c-2c(C2CCCCC2)c2ccc(C(=O)NS(=O)(=O)N(C)C)cc21 (centres unmarked)"
  Reported: "6.30 to 8.34"
- Compound: "COc1ccc2c(c1)C1CC1(C(=O)N1C3CCC1CC(=O)C3)Cn1c-2c(C2CCCCC2)c2ccc(C(=O)NS(=O)(=O)C3CC3)cc21 (centres unmarked)"
  Reported: "6.30 to 8.34"
- Compound: "COc1ccc2c(c1)C1CC1(C(=O)N1C3CCC1CC(N(C)Cc1ccccc1)C3)Cn1c-2c(C2CCCCC2)c2ccc(C(=O)NS(=O)(=O)N(C)C)cc21 (centres unmarked)"
  Reported: "6.30 to 8.34"
- Compound: "COc1ccc2c(c1)C1CC1(C(=O)N1C3CCC1CC(N1CCCCC1)C3)Cn1c-2c(C2CCCCC2)c2ccc(C(=O)NS(=O)(=O)N(C)C)cc21 (centres unmarked)"
  Reported: "6.30 to 8.34"
- Compound: "COc1ccc2c(c1)C1CC1(C(=O)N1C3CCC1COC3)Cn1c-2c(C2CCCCC2)c2ccc(C(=O)NS(=O)(=O)N(C)C)cc21 (centres unmarked)"
  Reported: "6.30 to 8.34"
- Compound: "COc1ccc2c(c1)C1CC1(C(=O)N1C3CCC[C@@H]1COC3)Cn1c-2c(C2CCCCC2)c2ccc(C(=O)NS(=O)(=O)C(C)C)cc21 (some centres unmarked)"
  Reported: "6.30 to 8.34"
- Compound: "COc1ccc2c(c1)C1CC1(C(=O)N1C3COCC1COC3)Cn1c-2c(C2CCCCC2)c2ccc(C(=O)NS(=O)(=O)CC(F)(F)F)cc21 (centres unmarked)"
  Reported: "6.30 to 8.34"
- Compound: "CCC(C)S(=O)(=O)NC(=O)c1ccc2c(C3CCCCC3)c3n(c2c1)CC1(C(=O)N2C4CCC2CC(N(C)Cc2ccccc2)C4)CC1c1cc(OC)ccc1-3 (centres unmarked)"
  Reported: "6.30 to 8.34"
- Compound: "COc1ccc2c(c1)C1CC1(C(=O)N1C3COCC1COC3)Cn1c-2c(C2CCCCC2)c2ccc(C(=O)NS(=O)(=O)CCC(F)(F)F)cc21 (centres unmarked)"
  Reported: "6.30 to 8.34"
- Compound: "COc1ccc2c(c1)C=C(C(=O)N1C3CCCC1COC3)Cn1c-2c(C2CCCCC2)c2ccc(C(=O)NS(=O)(=O)C3CC3)cc21"
  Reported: "6.30 to 8.34"
- Compound: "COc1ccc2c(c1)C1CC1(C(=O)N1C3CCC1CC3)Cn1c-2c(C2CCCCC2)c2ccc(C(=O)NS(=O)(=O)N3CCN(C)CC3)cc21 (centres unmarked)"
  Reported: "6.30 to 8.34"
- Compound: "COc1ccc2c(c1)C1CC1(C(=O)N1C3CCCC1COC3)Cn1c-2c(C2CCCCC2)c2ccc(C(=O)NS(=O)(=O)CCC(F)(F)F)cc21 (centres unmarked)"
  Reported: "6.30 to 8.34"
- Compound: "COc1ccc2c(c1)C1CC1(C(=O)N1C3CCC1CC(N(CCN(C)C)Cc1ccccc1)C3)Cn1c-2c(C2CCCCC2)c2ccc(C(=O)NS(C)(=O)=O)cc21 (centres unmarked)"
  Reported: "6.30 to 8.34"
- Compound: "COc1ccc2c(c1)C1CC1(C(=O)N1C3CCC1CC(N(C)C)C3)Cn1c-2c(C2CCCCC2)c2ccc(C(=O)NS(=O)(=O)N(C)C)cc21 (centres unmarked)"
  Reported: "6.30 to 8.34"
- Compound: "COc1ccc2c(c1)C1CC1(C(=O)N1C3COCC1COC3)Cn1c-2c(C2CCCCC2)c2ccc(C(=O)NS(=O)(=O)CC(C)C)cc21 (centres unmarked)"
  Reported: "6.30 to 8.34"
- Compound: "COc1ccc2c(c1)C1CC1(C(=O)N1C3CCC1CC(N(C)Cc1ccccc1)C3)Cn1c-2c(C2CCCCC2)c2ccc(C(=O)NS(=O)(=O)C(C)C)cc21 (centres unmarked) [drawing 36]"
  Reported: "6.30 to 8.34"
- Compound: "COc1ccc2c(c1)C1CC1(C(=O)N1C3CCC1CC(N(CCN(C)C)Cc1ccccc1)C3)Cn1c-2c(C2CCCCC2)c2ccc(C(=O)NS(=O)(=O)N3CCC3)cc21 (centres unmarked)"
  Reported: "6.30 to 8.34"
- Compound: "COc1ccc2c(c1)[C@@H]1C[C@]1(C(=O)N1C3COCC1COC3)Cn1c-2c(C2CCCCC2)c2ccc(C(=O)NS(=O)(=O)N(C)C)cc21"
  Reported: "6.30 to 8.34"
- Compound: "COc1ccc2c(c1)C1CC1(C(=O)N1C3COCC1COC3)Cn1c-2c(C2CCCCC2)c2ccc(C(=O)NS(=O)(=O)C(C)C)cc21 (centres unmarked)"
  Reported: "6.30 to 8.34"
- Compound: "CCC(C)S(=O)(=O)NC(=O)c1ccc2c(C3CCCCC3)c3n(c2c1)CC1(C(=O)N2C4CCC[C@@H]2COC4)CC1c1cc(OC)ccc1-3 (some centres unmarked)"
  Reported: "6.30 to 8.34"
- Compound: "COc1ccc2c(c1)C1CC1(C(=O)N1C3CCC1CC(=O)C3)Cn1c-2c(C2CCCCC2)c2ccc(C(=O)NS(=O)(=O)C(C)C)cc21 (centres unmarked)"
  Reported: "6.30 to 8.34"
